Ref: patent US6525040B1

TEST_DESCRIPTION: Glutathione peroxidase activity (NADPH-coupled, GSH/glutathione disulphide reductase)
Format: biochemical
APPLIED_CONDITIONS: substrate t-BuOOH; compound 20 μM; pH = 7.3; 37° C.; [GSH] = 2 mM
Readings of Glutathione peroxidase activity, t-BuOOH for the listed molecules
QUANTITY_MEASURED: Glutathione peroxidase activity, t-BuOOH

                                   molecule                            endpoint_value
0          CC1(C)CN[Se]c2sccc21 [BXT-51097]  11.4 nmoles of hydroperoxide reduced/min
1  CC1(C)CN[Se](=O)c2ccsc21 (stereo not shown) [BXT-51105]  13.9 nmoles of hydroperoxide reduced/min
2          CC1(C)CN[Se]c2ccsc21 [BXT-51103]  15.5 nmoles of hydroperoxide reduced/min
3  CC1(C)CN[Se](=O)c2sccc21 (stereo not shown) [BXT-51100]  10.1 nmoles of hydroperoxide reduced/min
